Recorded values, source PubChem BioAssay AID1845209.

- Test system: NCI-H211 tumor spheroids, viability percent test/control
- assay overview: Anticancer human tumor NCI-H211 cell line growth inhibition;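 note: spheroids exposed to agents for seven days before readout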
- condition summary: second compound 0.003 µM; first compound 0.1 µM; stronger effect = lower value; spheroids with HUVEC and MSC
viability, T/C under 1% gets 1 (yes), anything at or over 1% gets 0 (no).

{"columns": ["molecule", "classification"],
 "data": [
  ["COc1cc(C)[nH]c(=O)c1CN1CCc2c(Cl)cc(C(OC)C3COC3)c(Cl)c2C1=O (configuration not stated) + CC[C@@]1(O)C(=O)OCc2c1cc1n(c2=O)Cc2cc3c(CN(C)C)c(O)ccc3nc2-1", "0 (no)"],
  ["CC1COCCN1c1cc(-c2ccnn2C)c2ccnc(-c3ccn[nH]3)c2n1 (configuration not stated) + COc1cc2c(cc1O)CCNC21CSC2c3c(OC(C)=O)c(C)c4c(c3C(COC1=O)N1C(O)C3Cc5cc(C)c(OC)c(O)c5C(C21)N3C)OCO4", "1 (yes)"],
  ["[2H]c1nc(C)nc([2H])c1-c1cc(NC[C@@H](C)c2cccc3c(C(=O)NC)ccnc23)ncn1 + CC[C@@]1(O)C(=O)OCc2c1cc1n(c2=O)Cc2cc3c(CN(C)C)c(O)ccc3nc2-1", "0 (no)"],
  ["COc1ccc([C@@H](O)c2cc(-c3ncnc4cc(N5CCOCC5)ccc34)c(F)cc2Cl)nn1 + CC[C@@]1(O)C(=O)OCc2c1cc1n(c2=O)Cc2cc3c(CN(C)C)c(O)ccc3nc2-1", "0 (no)"],
  ["Cc1cc(C)c(CNC(=O)c2cc(-c3ccc(CN4CCOCC4)cc3)cc3c2cnn3C2CCCC2)c(=O)[nH]1 + COc1cc2c(cc1O)CCNC21CSC2c3c(OC(C)=O)c(C)c4c(c3C(COC1=O)N1C(O)C3Cc5cc(C)c(OC)c(O)c5C(C21)N3C)OCO4", "1 (yes)"]
]}

Query string: Item COc1ccc([C@@H](O)c2cc(-c3ncnc4cc(N5CCOCC5)ccc34)c(F)cc2Cl)nn1 + COc1cc2c(cc1O)CCNC21CSC2c3c(OC(C)=O)c(C)c4c(c3C(COC1=O)N1C(O)C3Cc5cc(C)c(OC)c(O)c5C(C21)N3C)OCO4 : viability, T/C beneath 1%, strictly?
Result string: 1 (yes)

Query string: // next record CC1COCCN1c1cc(-c2ccnn2C)c2ccnc(-c3ccn[nH]3)c2n1 (configuration not stated) + CC[C@@]1(O)C(=O)OCc2c1cc1n(c2=O)Cc2cc3c(CN(C)C)c(O)ccc3nc2-1
Result string: 0 (no)

###

compounds and their reported pIC50
- System: NCI-H211 tumor spheroids, viability percent test/control
- assay overview: Anticancer human tumor NCI-H211 cell line growth inhibition;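 note: spheroids exposed to agents for seven days before readout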
- condition summary: curve of compound; spheroids with HUVEC and MSC
pIC50: −log10 of the molar value.

Recorded pIC50, per entry:
{"columns": ["compound", "pIC50"],
 "data": [
  ["COc1cc(C)[nH]c(=O)c1CN1CCc2c(Cl)cc(C(OC)C3COC3)c(Cl)c2C1=O (centres undefined)", "< 5.00"],
  ["CC1COCCN1c1cc(-c2ccnn2C)c2ccnc(-c3ccn[nH]3)c2n1 (centres undefined)", "> 7.50"]
]}

Query string: Please provide the recorded pIC50 for [2H]c1nc(C)nc([2H])c1-c1cc(NC[C@@H](C)c2cccc3c(C(=O)NC)ccnc23)ncn1 , tested on NCI-H211 tumor spheroids, viability percent test/control.
Result string: < 5.00

Query string: Next entry: Cn1ncnc1[C@H]1c2n[nH]c(=O)c3cc(F)cc(c23)N[C@@H]1c1ccc(F)cc1
Result string: > 8.02
